tested on: NCI-H460 lung; assay: NCI-60 one-dose screen, 48 h (100 = growth as untreated, 0 = no growth, -100 = all killed); conditions: 10 µM unless noted
About 83,000 compounds went through this panel and 20% of them were active in at least one assay; those are over-represented in the sample as a whole.
Measured growth, listed per entry for reference.
The reply should be a number in %, with the unit left off.

Look over these answered cases.
Cpd Smiles	System Name	growth / %
O=C1C=CC(=O)N1c1cccc(Cl)c1	NCI-H460 lung	111
Cc1ccc(S(=O)(=O)Nn2c3c(cc(-c4nc5ccccc5s4)c2=O)CCCCCC3)cc1	NCI-H460 lung	104
N#Cc1c(-c2cccc([N+](=O)[O-])c2)nc(SCC(=O)c2ccc(Cl)cc2)[nH]c1=O	NCI-H460 lung	108

Consider the additional molecule presented here.
## Task Recorded growth for `CN1C(N2CCN(S(=O)(=O)c3ccccc3)CC2)=NS(=O)(=O)c2ccccc21` , please?
## Result 103

# credit: PubChem BioAssay (NCI)
